- Tgt: human TrkA receptor (Homo sapiens, UniProt P04629)
- Construct: host or cells: U2OS cells (PathHunter cell line)
- Sequence (P04629 33-796): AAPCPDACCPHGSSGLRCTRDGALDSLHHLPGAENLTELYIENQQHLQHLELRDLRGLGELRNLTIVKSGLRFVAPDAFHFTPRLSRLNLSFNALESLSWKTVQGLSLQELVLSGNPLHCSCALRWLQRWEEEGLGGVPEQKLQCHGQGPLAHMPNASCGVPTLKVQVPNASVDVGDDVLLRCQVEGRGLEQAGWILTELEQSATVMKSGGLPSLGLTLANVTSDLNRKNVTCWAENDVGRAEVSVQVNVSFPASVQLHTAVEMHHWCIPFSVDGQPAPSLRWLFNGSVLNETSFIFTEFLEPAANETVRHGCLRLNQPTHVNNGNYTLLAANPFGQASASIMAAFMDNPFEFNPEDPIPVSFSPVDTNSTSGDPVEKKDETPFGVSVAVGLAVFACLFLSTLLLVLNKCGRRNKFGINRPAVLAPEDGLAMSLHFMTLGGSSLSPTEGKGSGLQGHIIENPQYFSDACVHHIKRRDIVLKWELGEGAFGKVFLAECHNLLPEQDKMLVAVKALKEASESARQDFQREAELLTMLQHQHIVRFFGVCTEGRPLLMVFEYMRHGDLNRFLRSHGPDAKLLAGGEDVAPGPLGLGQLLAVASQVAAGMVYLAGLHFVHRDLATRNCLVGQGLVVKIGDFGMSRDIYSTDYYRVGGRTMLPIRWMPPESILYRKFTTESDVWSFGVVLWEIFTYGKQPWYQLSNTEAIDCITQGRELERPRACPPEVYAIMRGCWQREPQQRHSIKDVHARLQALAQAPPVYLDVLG
- Test description: DiscoverX PathHunter TrkA functional assay (NGF-stimulated U2OS cells)
- Assay type: cell-based
- Details: U2OS cells expressing human TrkA-PK, Shc1-EA and p75NTR; compound 1 h, then NGF at ~80% of maximal response for 3 h; luminescence
pIC50: −log10 of the molar value.
I would appreciate it if you labelled entries label 1 when pIC50 is 8 or higher, otherwise label 0.

Compound | Category label
CC(O)c1ccn2c(NC(=O)c3cc(-c4ccn(C)n4)c(C(F)(F)F)cc3F)c(-c3ccccc3)nc2c1 (single isomer, unassigned) [Compound 54] | label 1
Cn1ccc(-c2cc(C(=O)Nc3c(-c4ccccc4)nc4cc(N5CCNCC5)ccn34)ccc2C(F)(F)F)n1 | label 1
Cn1ccc(-c2cc(C(=O)Nc3c(-c4ccccc4)nc4cc(N5CCCC5)ccn34)ccc2C(F)(F)F)n1 | label 1
O=C(Nc1c(-c2ccccc2)nc2sccn12)c1ccc(C(F)(F)F)cc1F | label 0
CC(C)c1cccc2nc(-c3ccccc3)c(NC(=O)c3ccc(C(F)(F)F)cc3F)n12 | label 0

Problem: Dear colleague, could you confirm whether `Cn1ccc(-c2cc(C(=O)Nc3c(-c4ccncn4)nc4ccccn34)ccc2C(F)(F)F)n1` has pIC50 at or above 8?
Result: label 0

Problem: Dear colleague, could you confirm whether `Cn1ccc(-c2cc(C(=O)Nc3c(-c4ccccc4)nc4cc(C(=O)N5CCC5)ccn34)ccc2C(F)(F)F)n1` has pIC50 at or above 8?
Result: label 1

Problem: Dear colleague, could you confirm whether `Cc1coc(-c2cc(C(=O)Nc3c(-c4ccccc4)nc4ccccn34)ccc2C(F)(F)F)n1` has pIC50 at or above 8?
Result: label 1

---

- Tgt: human TrkA receptor (Homo sapiens, UniProt P04629)
- Test description: DiscoverX PathHunter TrkA functional assay (NGF-stimulated U2OS cells)
- Details: U2OS cells expressing human TrkA-PK, Shc1-EA and p75NTR; compound 1 h, then NGF at ~80% of maximal response for 3 h; luminescence
Measured parameter: IC50 (nM)
Please give a number only; it is taken to be in nM.

Problem: Report IC50, nothing else, for this molecule: `Cn1ccc(-c2cc(C(=O)Nc3c(-c4ccccc4)nc4c(F)cccn34)ccc2C(F)(F)F)n1`
Result: 1.9

Problem: Report IC50, nothing else, for this molecule: `O=C(Nc1c(-c2ccccc2)nc2ccccn12)c1cc(-c2cc[nH]n2)c(C(F)(F)F)cc1F`
Result: 2.7

Problem: Report IC50, nothing else, for this molecule: `O=C(Nc1c(-c2ccccc2)[nH]c2ccccc12)c1cc(-c2ncccn2)c(C(F)(F)F)cc1F`
Result: 8.2

Problem: Report IC50, nothing else, for this molecule: CC(O)c1ccn2c(NC(=O)c3cc(-c4cc[nH]n4)c(C(F)(F)F)cc3F)c(-c3ccccc3)nc2c1 (single isomer, unassigned) [Compound 73]
Result: 1.4

Problem: Report IC50, nothing else, for this molecule: Cn1ccc(-c2cc(C(=O)Nc3c(-c4ccccc4)nc4ccc(C(O)C(F)(F)F)cn34)ccc2C(F)(F)F)n1 (single isomer, unassigned) [Compound 66]
Result: 4.5

Problem: Report IC50, nothing else, for this molecule: `O=C(Nc1c(-c2ccccc2)nc2ccccn12)c1ccc(C(F)(F)F)c(-c2cc[nH]n2)c1`
Result: 8.8

Problem: Report IC50, nothing else, for this molecule: `Cn1ccc(-c2cc(C(=O)Nc3c(-c4ccccc4)nc4cc(N5CCOCC5)ccn34)ccc2C(F)(F)F)n1`
Result: 1.2

Problem: Report IC50, nothing else, for this molecule: `O=C(Nc1c(-c2ccccc2)nn2ccccc12)c1cc(-c2ncccn2)c(C(F)(F)F)cc1F`
Result: 5
